Observed pIC50, system Amine oxidase [flavin-containing] A (Rattus norvegicus) (UniProt P21396).
pIC50: −log10 of the molar value.
Recorded Metric: pIC50

compound=Cc1cc(=O)oc2cc3oc4ccccc4c3cc12 endpoint_result=5.14

A: COc1c(OCC(C)=O)ccc2cc(NC(C)=O)c(=O)oc12
B: Cc1cc(=O)oc2cc(OC3CCCCC3=O)ccc12 (stereo not drawn)
C: Cc1coc2cc3oc(=O)c(NC(=O)CN)cc3cc12
D: NCCCOc1c2occc2cc2ccc(=O)oc12
# ascending order, key=pIC50 Answer format: the labels, ordered as requested.
B, C, A, D

* * *

Observed IC50, system Amine oxidase [flavin-containing] A (Rattus norvegicus).

compound=COc1c(O)ccc2cc(N)c(=O)oc12 recorded_metric=IC50 endpoint_result="> 200 µM"

Query: IC50; subject: COc1cc(OC2CCCCC2=O)c2c(C)cc(=O)oc2c1 (stereo not drawn)
> 200 µM

Query: IC50; subject: CCN(CC)CCCOc1c2occc2cc2ccc(=O)oc12
> 200 µM

Data origin: ChEMBL document CHEMBL1149408
